Hello, the source for this data is paper PMC10320843, in case you need it.

test system: 5'Cy5-Myc (DNA, G4) GAGGGTGGGGAGGGTGGGGAAG; experiment: Cy5 fluorescence quenching titration; details: 50 mM TrisHCl/Triton buffer (Table S1), 25 °C; 20 nM DNA; apparent
valueKind: appKD

Task item: Output appKD of C[n+]1cc(NC(=O)c2ccc3ccc4ccc(C(=O)Nc5cc6ccccc6[n+](C)c5)nc4c3n2)cc2ccccc21
Reply: 57.7 ± 0.2 nM

###

Parameter appKD: see the listing below.
test system: 5'Cy5-Myc (DNA, G4) GAGGGTGGGGAGGGTGGGGAAG; assay: Cy5 fluorescence quenching titration; settings: 50 mM TrisHCl/Triton buffer (Table S1), 25 °C; 20 nM DNA; apparent
Could you give me the number in µM? Just the number is fine.

Below: 2 molecules and their reported appKD.
molecule | valueKind | assayValue
[N-]=[N+]=NCCCCCC(=O)NCC1CN(CCCCCNC(=O)CN(CCN)C(=O)Cn2cnc3c(=O)[nH]c(N)nc32)CCN(CCCCCNC(=O)CN(CCN)C(=O)Cn2cnc3c(=O)[nH]c(N)nc32)CCN(CCCCCNC(=O)CN(CCN)C(=O)Cn2cnc3c(=O)[nH]c(N)nc32)CCN1CCCCCNC(=O)CN(CCN)C(=O)Cn1cnc2c(=O)[nH]c(N)nc21 (stereo not drawn) | appKD | 0.90
NCCN(CC(=O)NCCCCCN1CCN(CCCCCNC(=O)CN(CCN)C(=O)Cn2cnc3c(=O)[nH]c(N)nc32)CCN(CCCCCNC(=O)CN(CCN)C(=O)Cn2cnc3c(=O)[nH]c(N)nc32)C(CNC(=O)CCCC[C@@H]2SC[C@@H]3NC(=O)N[C@@H]32)CN(CCCCCNC(=O)CN(CCN)C(=O)Cn2cnc3c(=O)[nH]c(N)nc32)CC1)C(=O)Cn1cnc2c(=O)[nH]c(N)nc21 (stereo partly drawn) | appKD | 1.01

Task item: Output appKD of C#CCCCC(=O)NCC1CN(CCCCCNC(=O)CN(CCN)C(=O)Cn2cnc3c(=O)[nH]c(N)nc32)CCN(CCCCCNC(=O)CN(CCN)C(=O)Cn2cnc3c(=O)[nH]c(N)nc32)CCN(CCCCCNC(=O)CN(CCN)C(=O)Cn2cnc3c(=O)[nH]c(N)nc32)CCN1CCCCCNC(=O)CN(CCN)C(=O)Cn1cnc2c(=O)[nH]c(N)nc21 (stereo not drawn)
Reply: 1.44
